- assayedTarget: T1, cell surface-expressed human αvβ8 (human, UniProt P06756 31-1048; P26012 43-769)
- T1 construct: whole, on cells; also called αvβ8 on SNB19 human astrocytoma cells
- T1 sequence (P06756 31-1048, chain 1 of 2): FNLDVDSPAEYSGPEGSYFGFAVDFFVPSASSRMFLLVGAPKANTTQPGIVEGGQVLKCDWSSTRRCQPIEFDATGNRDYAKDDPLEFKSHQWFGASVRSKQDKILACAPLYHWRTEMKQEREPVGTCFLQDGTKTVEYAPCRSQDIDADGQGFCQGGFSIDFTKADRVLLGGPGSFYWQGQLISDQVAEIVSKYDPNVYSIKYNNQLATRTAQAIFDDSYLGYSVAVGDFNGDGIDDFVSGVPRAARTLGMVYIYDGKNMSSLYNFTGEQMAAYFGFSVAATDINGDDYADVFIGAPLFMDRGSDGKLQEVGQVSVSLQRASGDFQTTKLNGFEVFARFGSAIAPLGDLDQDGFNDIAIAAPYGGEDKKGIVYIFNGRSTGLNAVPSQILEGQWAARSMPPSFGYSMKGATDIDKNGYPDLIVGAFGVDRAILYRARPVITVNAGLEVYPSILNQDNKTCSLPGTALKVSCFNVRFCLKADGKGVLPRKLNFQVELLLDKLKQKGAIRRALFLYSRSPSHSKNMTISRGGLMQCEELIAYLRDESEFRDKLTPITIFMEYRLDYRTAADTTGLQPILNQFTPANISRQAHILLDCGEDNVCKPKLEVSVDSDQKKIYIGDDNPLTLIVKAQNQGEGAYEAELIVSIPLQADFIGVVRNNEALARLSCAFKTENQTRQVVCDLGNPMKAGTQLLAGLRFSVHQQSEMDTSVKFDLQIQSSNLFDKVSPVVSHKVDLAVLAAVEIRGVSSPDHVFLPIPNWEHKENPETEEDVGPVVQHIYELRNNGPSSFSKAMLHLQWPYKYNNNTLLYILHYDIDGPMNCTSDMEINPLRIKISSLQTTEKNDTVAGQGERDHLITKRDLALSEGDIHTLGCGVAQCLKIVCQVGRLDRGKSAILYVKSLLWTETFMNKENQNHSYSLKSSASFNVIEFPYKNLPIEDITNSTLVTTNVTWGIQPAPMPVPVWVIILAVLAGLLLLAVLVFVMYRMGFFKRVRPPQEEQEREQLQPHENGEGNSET
- T1 sequence (P26012 43-769, chain 2 of 2): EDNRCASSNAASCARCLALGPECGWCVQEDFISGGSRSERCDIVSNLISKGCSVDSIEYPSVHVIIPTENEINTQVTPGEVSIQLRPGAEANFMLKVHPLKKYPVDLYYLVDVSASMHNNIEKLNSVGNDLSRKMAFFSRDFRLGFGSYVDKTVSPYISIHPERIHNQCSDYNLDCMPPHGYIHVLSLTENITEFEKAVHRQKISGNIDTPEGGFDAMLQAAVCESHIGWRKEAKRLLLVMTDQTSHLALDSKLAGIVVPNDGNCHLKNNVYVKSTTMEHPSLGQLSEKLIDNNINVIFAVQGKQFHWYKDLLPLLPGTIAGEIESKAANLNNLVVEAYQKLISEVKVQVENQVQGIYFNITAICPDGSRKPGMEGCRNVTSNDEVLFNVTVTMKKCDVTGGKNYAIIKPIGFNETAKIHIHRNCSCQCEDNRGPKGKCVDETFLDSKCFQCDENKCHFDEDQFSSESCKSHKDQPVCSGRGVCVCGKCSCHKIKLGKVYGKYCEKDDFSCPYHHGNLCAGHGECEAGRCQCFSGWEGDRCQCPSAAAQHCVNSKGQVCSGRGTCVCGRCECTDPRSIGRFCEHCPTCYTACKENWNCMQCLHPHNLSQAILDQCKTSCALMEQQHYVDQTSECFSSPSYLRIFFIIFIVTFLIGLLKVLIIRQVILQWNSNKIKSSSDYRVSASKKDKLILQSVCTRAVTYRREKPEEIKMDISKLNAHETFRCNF
- methodDescription: FACS titration on SNB19 human astrocytoma cells
- Description: The affinities of humanized, affinity-matured anti-αvβ8 IgGs (ADWA16-1, ADWA16-2, ADWA16-3, and ADWA16-4), a chimeric version of the parent ADWA16 murine IgG (ADWA16-chimera), and ADWA16 were measured on SNB19 human astrocytoma cells by FACS. IgGs were incubated at various concentrations with SNB19 cells for 1 hr at RT in PBS. […] Binding affinities (shown in Table 3) were calculated using curve-fitting software.
Reported Kd values are given for each entry in this list.
Provide the reading as a plain figure in nM.

>>> endpointvalue("ADWA16-4 (antibody, V domains shown) VH: EVQLVESGGGLVQPGGSLRLSCAVSGYIFSSYWVYWVRQAPGKGLEWVGYINPTTGYTEYADSVKGRFTISRDNSKNTLYLQMNSLRAEDTAVYYCATEGGNWEDYWGQGTLVTVSS VL: DIQMTQSPSSLSASVGDRVTITCRASKDISNYINWYQQKPGKAPKLLIYYTSRLYGGVPSRFSGSGSGTDFTLTISSLQPEDFATYYCQQFSELPRTFGQGTKVEIK")
0.614
>>> endpointvalue("ADWA16-2 (antibody, V domains shown) VH: EVQLVESGGGLVQPGGSLRLSCAVSGYIFSSYWVYWVRQAPGKGLEWVGYINPTTGYTEYADSVKGRFTISRDNSKNTLYLQMNSLRAEDTAVYYCATEGGNWEDYWGQGTLVTVSS VL: DIQMTQSPSSLSASVGDRVTITCRASKDISNYLNWYQQKPGKAPKLLIYYTSRLYSGVPSRFSGSGSGTDFTLTISSLQPEDFATYYCQQFSELPRTFGQGTKVEIK")
0.498
>>> endpointvalue("ADWA16-1 (antibody, V domains shown) VH: EVQLVESGGGLVQPGGSLRLSCAVSGYIFSSYWVYWVRQAPGKGLEWVGYINPTTGYTEYADSVKGRFTISRDNSKNTLYLQMNSLRAEDTAVYYCATEGGNWEDYWGQGTLVTVSS VL: DIQMTQSPSSLSASVGDRVTITCRASQDISNYINWYQQKPGKAPKLLIYYTSRLYSGVPSRFSGSGSGTDFTLTISSLQPEDFATYYCQQFSELPRTFGQGTKVEIK")
0.459

Could you now consider this next binder?
**Query** # input binder: ADWA16 (antibody, V domains shown, Murine IgG, detected with anti-mouse secondary antibody; also called parent murine IgG; murine parent ADWA16) VH: QVQLQQSGAELAKPGASMKMSCKASGYTFSSYWIYWVKQRPGQGLEWIGYINPTTGYTEYNQKFRDKATLTADKSSNTAYMQLSSLTSEDSAVYYCATEGGNWEDYWGQGTTLTVSS VL: DIQMTQTTSSLSASLGDRVTISCRASQDISNYLNWYQQKPDGTVKLLIYYTSRLYSGVPSRFSGSGSGTDYSLTISNLEPKDIATYYCQQFSELPRTFGGGTKLEIK ; wanted: its Kd
**Result** 0.417
